- Tested on: ECHORC (Watergrass (Calif.))
- test-description: Postemergence weed control under flooded paddy conditions
- Assay type: in vivo, Echinochloa oryzoides
- test-conditions: Rate 0.2500 kg/ha, postemergence weeds, rated 3 to 4 weeks after treatment
- Description: Results of herbicide evaluation are expressed on a rating scale (0-9). The scale is based upon a visual observation of plant stand, vigor, malformation, size, chlorosis and overall plant appearance as compared with a control. Plastic containers containing weeds which are 3 to 5 cm tall and rice seedlings at the 1.5 to 2.5 leaf stage are flooded with water. […] The compounds evaluated are reported by compound number given in Example 37.
Herbicidal rating ECHORC values, listed per item
Just the number, please.

Exam item: Item C=CCN1C(=O)C(CC(=O)OC(C)C)SC1=Nc1cc(-n2c(=O)cc(C(F)(F)F)n(C)c2=O)c(F)cc1Cl (stereo not drawn) [Compound 66] has what recorded Herbicidal rating ECHORC?
Marked response: 9.0

Exam item: Item COC(=O)[C@H](Cc1ccc([N+](=O)[O-])cc1)N1C(=O)CSC1=Nc1cc(-n2c(=O)cc(C(F)(F)F)n(C)c2=O)c(F)cc1Cl [Compound 78] has what recorded Herbicidal rating ECHORC?
Marked response: 9.0

Exam item: Item CCOC(=O)CN1C(=O)C(CC(=O)OC(C)C(=O)OCC)S/C1=N/c1cc(-n2c(=O)cc(C(F)(F)F)n(C)c2=O)c(F)cc1Cl (stereo not drawn) [Compound 87] has what recorded Herbicidal rating ECHORC?
Marked response: 3.0

* * *

- System: AMBEL (Ragweed, Common)
- test-description: Postemergence herbicidal evaluation
- Type: in vivo, Ambrosia artemisifolia
- test-conditions: postemergence, rate 0.0313 kg/ha
AMBEL herbicidal rating values, listed per item
Just the number, please.

Exam item: Query AMBEL herbicidal rating on AMBEL (Ragweed, Common) for CCOC(=O)CN1C(=O)C(C)SC1=Nc1cc(-n2c(=O)cc(C(F)(F)F)n(C)c2=O)c(F)cc1Cl (stereo not shown)
Marked response: 9.0

Exam item: Query AMBEL herbicidal rating on AMBEL (Ragweed, Common) for "O=C1CSC(=Nc2cc(N3C(=O)C4=C(CCCC4)C3=O)c(F)cc2Cl)N1c1ccccc1"
Marked response: 2.0

Exam item: Query AMBEL herbicidal rating on AMBEL (Ragweed, Common) for "CN1C(=O)CSC1=Nc1cc(N2C(=O)C3=C(CCCC3)C2=O)c(F)cc1Cl"
Marked response: 3.0

Exam item: Query AMBEL herbicidal rating on AMBEL (Ragweed, Common) for CN1C(=O)C(CC(=O)NS(C)(=O)=O)SC1=Nc1cc(-n2c(=O)cc(C(F)(F)F)n(C)c2=O)c(F)cc1Cl (stereo not shown)
Marked response: 1.0

Continuing:
Exam item: Query AMBEL herbicidal rating on AMBEL (Ragweed, Common) for CC1SC(=Nc2cc(N3C(=O)C4=C(CCCC4)C3=O)c(F)cc2Cl)N(C)C1=O (stereo not shown)
Marked response: 0.0

Exam item: Query AMBEL herbicidal rating on AMBEL (Ragweed, Common) for CN1C(=O)C(F)SC1=Nc1cc(N2C(=O)C3=C(CCCC3)C2=O)c(F)cc1Cl (stereo not shown)
Marked response: 0.0

Exam item: Query AMBEL herbicidal rating on AMBEL (Ragweed, Common) for CCOC(=O)CN1C(=O)C(CC(=O)OC(C)C(=O)OCC)S/C1=N/c1cc(-n2c(=O)cc(C(F)(F)F)n(C)c2=O)c(F)cc1Cl (stereo not shown)
Marked response: 4.0

* * *

- Test system: CYPIR (Rice Flatsedge)
- test-description: Postemergence weed control under flooded paddy conditions
- Assay type: in vivo, Cyperus iria
- test-conditions: Rate 0.0313 kg/ha, postemergence weeds, rated 3 to 4 weeks after treatment
readout-kind: Herbicidal rating CYPIR
Just the number, please.

Some entries whose results are on file:
Exam item: Item CCOC(=O)CN1C(=O)C(Cc2ccccc2OC(C)C(=O)O)S/C1=N/c1cc(-n2c(=O)cc(C(F)(F)F)n(C)c2=O)c(F)cc1Cl (stereo not shown) has what recorded Herbicidal rating CYPIR?
Marked response: 0.0

Exam item: Item COC(=O)CC1SC(=Nc2cc(-n3c(=O)cc(C(F)(F)F)n(C)c3=O)c(F)cc2Cl)N(C)C1=O (stereo not shown) has what recorded Herbicidal rating CYPIR?
Marked response: 0.0

Exam item: Item C=CCN1C(=O)C(CC(=O)OC(C)C)SC1=Nc1cc(-n2c(=O)cc(C(F)(F)F)n(C)c2=O)c(F)cc1Cl (stereo not shown) has what recorded Herbicidal rating CYPIR?
Marked response: 6.0

Continuing:
Exam item: Item "Cn1c(C(F)(F)F)cc(=O)n(-c2cc(N=C3SCC(=O)N3CC(=O)OCC#N)c(Cl)cc2F)c1=O" has what recorded Herbicidal rating CYPIR?
Marked response: 0.0

* * *

- System: GLXMAW (Soybean, Williams)
- test-description: Postemergence herbicidal evaluation
- Assay type: in vivo, Glycine max, (L.) Merr. cv Williams
- test-conditions: postemergence, rate 0.0625 kg/ha
readout-kind: herbicidal rating GLXMAW
Just the number, please.

Exam item: Item CCOC(=O)CN1C(=O)C(C(=O)OCC)SC1=Nc1cc(-n2c(=O)cc(C(F)(F)F)n(C)c2=O)c(F)cc1Cl (stereo not drawn) has what recorded herbicidal rating GLXMAW?
Marked response: 7.5

Exam item: Item CN1C(=O)C(CC(=O)NO)SC1=Nc1cc(-n2c(=O)cc(C(F)(F)F)n(C)c2=O)c(F)cc1Cl (stereo not drawn) has what recorded herbicidal rating GLXMAW?
Marked response: 8.5

Exam item: Item CCOC(=O)CN1C(=O)C(Cl)SC1=Nc1cc(-n2c(=O)cc(C(F)(F)F)n(C)c2=O)c(F)cc1Cl (stereo not drawn) has what recorded herbicidal rating GLXMAW?
Marked response: 6.0

Exam item: Item "Cn1c(C(F)(F)F)cc(=O)n(-c2cc(N=C3SCC(=O)N3Cc3ccc(Cl)cc3)c(Cl)cc2F)c1=O" has what recorded herbicidal rating GLXMAW?
Marked response: 5.5

Exam item: Item "COc1ccc(CN2C(=O)CSC2=Nc2cc(-n3c(=O)cc(C(F)(F)F)n(C)c3=O)c(F)cc2Cl)c(OC)c1" has what recorded herbicidal rating GLXMAW?
Marked response: 7.0

Exam item: Item "Cn1c(C(F)(F)F)cc(=O)n(-c2cc(N=C3SCC(=O)N3Cc3ccccc3Cl)c(Cl)cc2F)c1=O" has what recorded herbicidal rating GLXMAW?
Marked response: 5.0

Exam item: Item "Cn1c(C(F)(F)F)cc(=O)n(-c2cc(N=C3SCC(=O)N3Cc3ccc(Br)cc3)c(Cl)cc2F)c1=O" has what recorded herbicidal rating GLXMAW?
Marked response: 6.5

Exam item: Item "CSCCN1C(=O)CSC1=Nc1cc(-n2c(=O)cc(C(F)(F)F)n(C)c2=O)c(F)cc1Cl" has what recorded herbicidal rating GLXMAW?
Marked response: 7.5

Exam item: Item "Cn1c(C(F)(F)F)cc(=O)n(-c2cc(N=C3SCC(=O)N3CC(=O)OCC3CC3)c(Cl)cc2F)c1=O" has what recorded herbicidal rating GLXMAW?
Marked response: 7.0

Exam item: Item "Cn1c(C(F)(F)F)cc(=O)n(-c2cc(N=C3SCC(=O)N3Cc3cccc(C(F)(F)F)c3)c(Cl)cc2F)c1=O" has what recorded herbicidal rating GLXMAW?
Marked response: 5.5

Exam item: Item "Cc1cccc(CN2C(=O)CSC2=Nc2cc(-n3c(=O)cc(C(F)(F)F)n(C)c3=O)c(F)cc2Cl)c1" has what recorded herbicidal rating GLXMAW?
Marked response: 8.0

Exam item: Item "COc1cccc(CN2C(=O)CSC2=Nc2cc(-n3c(=O)cc(C(F)(F)F)n(C)c3=O)c(F)cc2Cl)c1" has what recorded herbicidal rating GLXMAW?
Marked response: 5.5

* * *

- System: ECHCG (Barnyardgrass)
- test-description: Preemergence herbicidal evaluation
- Format: in vivo, Echinochloa crus-galli
- test-conditions: 0.0156 kg/ha, rated 4-5 weeks after treatment
Preemergence herbicidal rating ECHCG values, listed per item
Just the number, please.

Some entries whose results are on file:
Exam item: Item CN1C(=O)C(CC(=O)NO)SC1=Nc1cc(-n2c(=O)cc(C(F)(F)F)n(C)c2=O)c(F)cc1Cl (stereo not shown) has what recorded Preemergence herbicidal rating ECHCG?
Marked response: 1.0

Exam item: Item "Cn1c(C(F)(F)F)cc(=O)n(-c2cc(N=C3SCC(=O)N3CC(F)(F)F)c(Cl)cc2F)c1=O" has what recorded Preemergence herbicidal rating ECHCG?
Marked response: 2.0

Exam item: Item "COC(=O)CSCCN1C(=O)CSC1=Nc1cc(-n2c(=O)cc(C(F)(F)F)n(C)c2=O)c(F)cc1Cl" has what recorded Preemergence herbicidal rating ECHCG?
Marked response: 2.0

As a next step, examine the compound that follows.
Exam item: Item C=CCN1C(=O)C(CC(=O)NO)SC1=Nc1cc(-n2c(=O)cc(C(F)(F)F)n(C)c2=O)c(F)cc1Cl (stereo not shown) has what recorded Preemergence herbicidal rating ECHCG?
Marked response: 0.0

* * *

- System: GLXMAW (Soybean, Williams)
- test-description: Postemergence herbicidal evaluation
- Format: in vivo, Glycine max, (L.) Merr. cv Williams
- test-conditions: postemergence, rate 0.0158 kg/ha
- Experimental: In the tests, seedling plants are grown in jiffy flats for about two weeks. The test compounds are dispersed in 50/50 acetone/water mixtures containing 0.5% TWEEN®20, a polyoxyethylene sorbitan monolaurate surfactant of Atlas Chemical Industries, in sufficient quantities to provide the equivalent of about 0.0156 kg to 0.500 kg per hectare of active compound when applied to the plants through a spray nozzle operating at 40 psi for a predetermined time. […]
GLXMAW herbicidal rating values, listed per item

Some entries whose results are on file:
Exam item: Item "CCOC(=O)CN1C(=O)C(=Cc2ccc(F)cc2)SC1=Nc1cc(-n2c(=O)cc(C(F)(F)F)n(C)c2=O)c(F)cc1Cl" has what recorded GLXMAW herbicidal rating?
Marked response: 2.0

Exam item: Item CCOC(=O)C(c1ccc(Cl)cc1)N1C(=O)CSC1=Nc1cc(-n2c(=O)cc(C(F)(F)F)n(C)c2=O)c(F)cc1Cl (racemic) has what recorded GLXMAW herbicidal rating?
Marked response: 4.5

Exam item: Item "CCOC(=O)CN1C(=O)C(=C(C)C)S/C1=N/c1cc(-n2c(=O)cc(C(F)(F)F)n(C)c2=O)c(F)cc1Cl" has what recorded GLXMAW herbicidal rating?
Marked response: 3.5

Exam item: Item "CCOC(=O)[C@H](C)N1C(=O)CSC1=Nc1cc(-n2c(=O)cc(C(F)(F)F)n(C)c2=O)c(F)cc1Cl" has what recorded GLXMAW herbicidal rating?
Marked response: 4.0

As a next step, examine the molecule that follows.
Exam item: Item CN1C(=O)C(CC(N)=O)SC1=Nc1cc(-n2c(=O)cc(C(F)(F)F)n(C)c2=O)c(F)cc1Cl (centres unmarked) has what recorded GLXMAW herbicidal rating?
Marked response: 7.5
